Examples of binders with documented Kd follow.
# tgt: T1, C-terminally FLAG-tagged human Gas6 recombinant protein (hGas6-F) (human, UniProt Q14393 31-678, gamma-carboxylated glutamic acid residues in the Gla domain (producer cells co-express rat VKOR and human GGCX); positions not given)
# T1 construct: also called human Gas6-F; human Gas6 protein
# T1 sequence: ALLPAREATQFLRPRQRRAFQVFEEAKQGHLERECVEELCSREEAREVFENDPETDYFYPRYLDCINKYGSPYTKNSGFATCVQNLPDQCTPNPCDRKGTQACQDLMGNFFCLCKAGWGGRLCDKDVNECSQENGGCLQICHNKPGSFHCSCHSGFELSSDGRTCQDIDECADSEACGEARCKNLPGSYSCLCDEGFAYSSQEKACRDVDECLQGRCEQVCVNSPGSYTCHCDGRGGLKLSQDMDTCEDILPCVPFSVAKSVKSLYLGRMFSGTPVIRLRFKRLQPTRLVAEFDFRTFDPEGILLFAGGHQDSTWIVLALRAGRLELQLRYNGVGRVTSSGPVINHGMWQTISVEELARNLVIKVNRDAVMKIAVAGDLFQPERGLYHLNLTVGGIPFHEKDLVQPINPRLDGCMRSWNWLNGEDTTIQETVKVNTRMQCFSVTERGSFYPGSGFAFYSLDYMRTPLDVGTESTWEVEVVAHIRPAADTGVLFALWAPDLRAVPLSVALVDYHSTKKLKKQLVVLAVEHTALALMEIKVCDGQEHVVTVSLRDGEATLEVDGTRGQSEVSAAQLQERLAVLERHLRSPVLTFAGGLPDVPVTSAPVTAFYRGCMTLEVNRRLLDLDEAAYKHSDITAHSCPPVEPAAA
# method: SPR Biacore T100, captured antibody, Gas6 analyte, first test
# Experimental: An anti-human IgG antibody was immobilized on a CM5 sensor chip (manufactured by GE Healthcare Japan Corp.) using Human Antibody Capture Kit (manufactured by GE Healthcare Japan Corp.) according to the attached manual. Each test antibody adjusted to 1 μg/mL was added for 10 seconds at a flow rate of 10 μL/min to flow cells. […] The obtained sensorgram was analyzed using Bia Evaluation Software (manufactured by GE Healthcare Japan Corp.), and the kinetic constant of each antibody was calculated.
property-label: Kd

>>> result("hzKM5320 LV5HV4 antibody (antibody, V domains shown, Humanized; variant human IgG4 constant region (EU S228P, L235E, R409K), human kappa; also called A-24) VH: QVQLVQSGPELKKPGASVKVSCKASGYTFTNYGMNWVRQAPGQGLKWMGWINTETGEPTYSDDFKGRFVFSLDTSVSTAYLQISSLKAEDTATYFCAREDGYYGTLDYWGQGTTVTVSS VL: DIVMTQSPDSLAVSLGERVTINCKASQSVSNDVAWYQQKPGQSPKVLIYYASNRYTGVPDRFSGSGSGTDFTFTISSVQAEDVAVYFCQQDYSSPWTFGQGTKLEIK")
"< 2.19 nM"
>>> result("hzKM5321 LV9HV0 antibody (antibody, V domains shown, Humanized; variant human IgG4 constant region (EU S228P, L235E, R409K), human kappa; also called B-11; LV9HV0) VH: QVHLVQSGSELKKPGASVKISCKASGYTFTNYGMNWVRQAPGQGLEWMGWINTNTGEPTYTEEFKGRFVFSLDTSVTTSYLQISTLKAEDTAVYFCARDEGWFVYWGQGTLVTVSS VL: ETTVTQSPSSLSVSTGDRVTITCITSTDIDDDMNWYQQKPGKPPKLLISEGNTLRPGVPSRFSSSGSGTDFTFTISSTQPEDFADYYCLQTDSVPLTFGQGTKLEIK")
"< 1.96 nM"
>>> result("hzKM5321 LV6HV1 antibody (antibody, V domains shown, Humanized; variant human IgG4 constant region (EU S228P, L235E, R409K), human kappa; also called B-22; LV6HV1) VH: QVHLVQSGSELKKPGASVKISCKASGYTFTNYGMNWVRQAPGQGLKWMGWINTNTGEPTYTEEFKGRFVFSLDTSVTTSYLQISTLKAEDTAVYFCARDEGWFVYWGQGTLVTVSS VL: ETTLTQSPSSLSVSTGDRVTITCITSTDIDDDMNWYQQKPGKPPKLLISEGNTLRPGVPSRFSSSGSGTDFTLTISSTQPEDFADYYCLQTDSVPLTFGQGTKVEIK")
"< 2.35 nM"
>>> result("hzKM5320 LV0HV8 antibody (antibody, V domains shown, Humanized; variant human IgG4 constant region (EU S228P, L235E, R409K), human kappa; also called A-10) VH: QIQLVQSGPELKKPGASVKISCKASGYTFTNYGMNWVKQAPGQGLKWMGWINTETGEPTYSDDFKGRFVFSLDTSVTTAYLQISSLKAEDTATYFCAREDGYYGTLDYWGQGTTVTVSS VL: DVVMTQSPDSLAVSLGERVTINCKASQSVSNDVAWYQQKPGQSPKLLIYYASNRYTGVPDRFSGSGSGTDFTLTISSLQAEDVAVYYCQQDYSSPWTFGQGTKLEIK")
"< 9.79 nM"
>>> result("hzKM5321 LV6HV2b antibody (antibody, V domains shown, Humanized; variant human IgG4 constant region (EU S228P, L235E, R409K), human kappa; also called B-24; LV6HV2b) VH: QVHLVQSGPELKKPGASVKISCKASGYTFTNYGMNWVRQAPGQGLEWMGWINTNTGEPTYTEEFKGRFVFSLDTSVTTSYLQISTLKAEDTATYFCARDEGWFVYWGQGTLVTVSS VL: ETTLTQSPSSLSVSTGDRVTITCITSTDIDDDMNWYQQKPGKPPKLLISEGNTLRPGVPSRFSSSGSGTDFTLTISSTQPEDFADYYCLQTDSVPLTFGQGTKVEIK")
"< 2.33 nM"
